target: Melanocyte-stimulating hormone receptor (Homo sapiens); assay: Agonist activity at human MC1R expressed in HEK293 cells assessed as induction of intracellular cAMP accumulation measured after 3 mins
Sequence (Q01726 whole entry): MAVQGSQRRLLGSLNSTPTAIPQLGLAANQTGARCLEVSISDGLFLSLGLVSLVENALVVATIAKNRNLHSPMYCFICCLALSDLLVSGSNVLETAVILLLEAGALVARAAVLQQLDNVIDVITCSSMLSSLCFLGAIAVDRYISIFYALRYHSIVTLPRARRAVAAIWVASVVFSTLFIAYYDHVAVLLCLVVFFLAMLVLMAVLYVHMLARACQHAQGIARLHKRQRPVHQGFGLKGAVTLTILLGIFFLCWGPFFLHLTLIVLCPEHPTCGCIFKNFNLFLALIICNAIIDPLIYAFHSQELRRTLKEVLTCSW
Provide the recorded pEC50 for the entries that follow.
Formally, pEC50 is defined as -log10 of the concentration c, with c in mol/L.

Specify pEC50 for `N=C(N)NCCC[C@@H]1NC(=O)[C@@H](Cc2ccc3ccccc3c2)NC(=O)[C@H](Cc2c[nH]cn2)NC(=O)C2(CCC2)NC(=O)C[C@@H](C(N)=O)NC(=O)[C@H](Cc2c[nH]c3ccccc23)NC1=O` and stop.
7.32

Specify pEC50 for `N=C(N)NCCC[C@@H]1NC(=O)[C@@H](Cc2ccccc2)NC(=O)[C@H](Cc2c[nH]cn2)NC(=O)C2(CCCCC2)NC(=O)CC[C@@H](C(N)=O)NC(=O)[C@H](Cc2c[nH]c3ccccc23)NC1=O` and stop.
7.24

Specify pEC50 for `N=C(N)NCCC[C@@H]1NC(=O)[C@@H](Cc2ccccc2)NC(=O)[C@H](Cc2c[nH]cn2)NC(=O)C2(CCC2)NC(=O)C[C@@H](C(N)=O)NC(=O)[C@H](Cc2c[nH]c3ccccc23)NC1=O` and stop.
7.22

----------
Provide the recorded IC50 for the entries that follow.
target: Melanocortin receptor 5 (Homo sapiens); experiment: Displacement of [125I]-NDP-alpha-MSH from human MC5R expressed in HEK293 cells after 40 mins by gamma counting method; type: cell-based
Sequence (P33032 whole entry): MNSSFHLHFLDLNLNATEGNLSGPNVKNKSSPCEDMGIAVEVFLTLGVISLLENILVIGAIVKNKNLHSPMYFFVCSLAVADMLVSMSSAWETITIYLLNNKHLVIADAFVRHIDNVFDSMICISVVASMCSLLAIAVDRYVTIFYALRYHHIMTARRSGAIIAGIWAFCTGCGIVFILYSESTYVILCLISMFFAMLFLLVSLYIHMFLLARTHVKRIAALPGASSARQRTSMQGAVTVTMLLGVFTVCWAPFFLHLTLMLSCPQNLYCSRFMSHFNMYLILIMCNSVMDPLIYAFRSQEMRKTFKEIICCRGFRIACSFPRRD
Bridge positions count the residues as written; N and C are the ends. Square brackets hold non-standard residues; d marks the D form. Peptide text beside a SMILES is read from it. d2Nal = N[C@H](Cc1ccc2ccccc2c1)C(=O)O; Ac4c = NC1(C(=O)O)CCC1; Aib = CC(C)(N)C(=O)O
Please reply with the bare figure in nM and do not write the unit itself.

Specify IC50 for `N=C(N)NCCC[C@@H]1NC(=O)[C@@H](Cc2ccccc2)NC(=O)[C@H](Cc2c[nH]cn2)NC(=O)C2(CCCCC2)NC(=O)CC[C@@H](C(N)=O)NC(=O)[C@H](Cc2c[nH]c3ccccc23)NC1=O` and stop.
630

Specify IC50 for N=C(N)NCCC[C@@H]1NC(=O)[C@@H](Cc2ccccc2)NC(=O)[C@H](Cc2c[nH]cn2)NC(=O)C2(CCC2)NC(=O)CC[C@@H](C(N)=O)NC(=O)[C@H](Cc2c[nH]c3ccccc23)NC1=O ([Ac4c]H[dF]RWE-NH2; lactam N-6) and stop.
380

Specify IC50 for CC1(C)NC(=O)C[C@@H](C(N)=O)NC(=O)[C@H](Cc2c[nH]c3ccccc23)NC(=O)[C@H](CCCNC(=N)N)NC(=O)[C@@H](Cc2ccc3ccccc3c2)NC(=O)[C@H](Cc2c[nH]cn2)NC1=O ([Aib]H[d2Nal]RWD-NH2; lactam N-6) and stop.
165

----------
molecular target: Melanocortin receptor 3 (Homo sapiens, UniProt P41968); assay: Agonist activity at human MC3R expressed in HEK293 cells assessed as induction of intracellular cAMP accumulation after 3 mins; format: functional, cell-based; settings: read-out: EC50
Sequence (P41968 whole entry): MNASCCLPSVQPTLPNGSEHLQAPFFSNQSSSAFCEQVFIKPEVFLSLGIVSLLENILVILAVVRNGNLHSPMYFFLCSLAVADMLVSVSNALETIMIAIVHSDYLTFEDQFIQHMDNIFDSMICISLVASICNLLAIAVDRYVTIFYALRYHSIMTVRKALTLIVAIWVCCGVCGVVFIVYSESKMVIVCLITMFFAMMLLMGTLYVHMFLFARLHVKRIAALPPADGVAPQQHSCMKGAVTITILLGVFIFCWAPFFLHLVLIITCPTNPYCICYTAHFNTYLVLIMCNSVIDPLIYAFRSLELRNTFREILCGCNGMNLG
Bridge positions count the residues as written; N and C are the ends. Square brackets hold non-standard residues; d marks the D form. Peptide text beside a SMILES is read from it. d2Nal = N[C@H](Cc1ccc2ccccc2c1)C(=O)O; Aib = CC(C)(N)C(=O)O
observed-property: pEC50
Formally, pEC50 is defined as -log10 of the concentration c, with c in mol/L.

Specify pEC50 for `N=C(N)NCCC[C@@H]1NC(=O)[C@@H](Cc2ccccc2)NC(=O)[C@H](Cc2c[nH]cn2)NC(=O)C2(CCCCC2)NC(=O)CC[C@@H](C(N)=O)NC(=O)[C@H](Cc2c[nH]c3ccccc23)NC1=O` and stop.
8.39

Specify pEC50 for `N=C(N)NCCC[C@@H]1NC(=O)[C@@H](Cc2ccc3ccccc3c2)NC(=O)[C@H](Cc2c[nH]cn2)NC(=O)C2(CCCC2)NC(=O)C[C@@H](C(N)=O)NC(=O)[C@H](Cc2c[nH]c3ccccc23)NC1=O` and stop.
8.72

Specify pEC50 for CC1(C)NC(=O)C[C@@H](C(N)=O)NC(=O)[C@H](Cc2c[nH]c3ccccc23)NC(=O)[C@H](CCCNC(=N)N)NC(=O)[C@@H](Cc2ccc3ccccc3c2)NC(=O)[C@H](Cc2c[nH]cn2)NC1=O ([Aib]H[d2Nal]RWD-NH2; lactam N-6) and stop.
7.14

Specify pEC50 for `N=C(N)NCCC[C@@H]1NC(=O)[C@@H](Cc2ccc3ccccc3c2)NC(=O)[C@H](Cc2c[nH]cn2)NC(=O)C2(CCCCC2)NC(=O)C[C@@H](C(N)=O)NC(=O)[C@H](Cc2c[nH]c3ccccc23)NC1=O` and stop.
7.12

----------
molecular target: Melanocortin receptor 5 (Homo sapiens); experiment: Displacement of [125I]-NDP-alpha-MSH from human MC5R expressed in HEK293 cells after 40 mins by gamma counting method
observed-property: pIC50
Formally, pIC50 is defined as -log10 of the concentration c, with c in mol/L.

Provide pIC50, recorded with Melanocortin receptor 5 (Homo sapiens), of `N=C(N)NCCC[C@@H]1NC(=O)[C@@H](Cc2ccc3ccccc3c2)NC(=O)[C@H](Cc2c[nH]cn2)NC(=O)C2(CCCC2)NC(=O)C[C@@H](C(N)=O)NC(=O)[C@H](Cc2c[nH]c3ccccc23)NC1=O`
6.80

----------
Provide the recorded IC50 for the entries that follow.
biological target: Melanocortin receptor 3 (Homo sapiens, UniProt P41968); assay: Displacement of [125I]-NDP-alpha-MSH from human MC3R expressed in HEK293 cells after 40 mins by gamma counting method
Bridge positions count the residues as written; N and C are the ends. Square brackets hold non-standard residues; d marks the D form. Peptide text beside a SMILES is read from it. Ac5c = NC1(C(=O)O)CCCC1; Ac4c = NC1(C(=O)O)CCC1
Please reply with the bare figure in nM and do not write the unit itself.

Specify IC50 for `N=C(N)NCCC[C@@H]1NC(=O)[C@@H](Cc2ccc3ccccc3c2)NC(=O)[C@H](Cc2c[nH]cn2)NC(=O)C2(CCCC2)NC(=O)C[C@@H](C(N)=O)NC(=O)[C@H](Cc2c[nH]c3ccccc23)NC1=O` and stop.
16

Specify IC50 for N=C(N)NCCC[C@@H]1NC(=O)[C@@H](Cc2ccccc2)NC(=O)[C@H](Cc2c[nH]cn2)NC(=O)C2(CCC2)NC(=O)CC[C@@H](C(N)=O)NC(=O)[C@H](Cc2c[nH]c3ccccc23)NC1=O ([Ac4c]H[dF]RWE-NH2; lactam N-6) and stop.
55

Specify IC50 for `N=C(N)NCCC[C@@H]1NC(=O)[C@@H](Cc2ccc3ccccc3c2)NC(=O)[C@H](Cc2c[nH]cn2)NC(=O)C2(CCCCC2)NC(=O)C[C@@H](C(N)=O)NC(=O)[C@H](Cc2c[nH]c3ccccc23)NC1=O` and stop.
3.9

Specify IC50 for N=C(N)NCCC[C@@H]1NC(=O)[C@@H](Cc2ccccc2)NC(=O)[C@H](Cc2c[nH]cn2)NC(=O)C2(CCCC2)NC(=O)CC[C@@H](C(N)=O)NC(=O)[C@H](Cc2c[nH]c3ccccc23)NC1=O ([Ac5c]H[dF]RWE-NH2; lactam N-6) and stop.
59

Specify IC50 for `N=C(N)NCCC[C@@H]1NC(=O)[C@@H](Cc2ccccc2)NC(=O)[C@H](Cc2c[nH]cn2)NC(=O)C2(CCCCC2)NC(=O)CC[C@@H](C(N)=O)NC(=O)[C@H](Cc2c[nH]c3ccccc23)NC1=O` and stop.
74

Specify IC50 for `N=C(N)NCCC[C@@H]1NC(=O)[C@@H](Cc2ccc3ccccc3c2)NC(=O)[C@H](Cc2c[nH]cn2)NC(=O)C2(CCC2)NC(=O)C[C@@H](C(N)=O)NC(=O)[C@H](Cc2c[nH]c3ccccc23)NC1=O` and stop.
5.1

----------
target: Melanocortin receptor 4 (Homo sapiens); experiment: Displacement of [125I]-NDP-alpha-MSH from human MC4R expressed in HEK293 cells after 40 mins by gamma counting method
Sequence (P32245 whole entry): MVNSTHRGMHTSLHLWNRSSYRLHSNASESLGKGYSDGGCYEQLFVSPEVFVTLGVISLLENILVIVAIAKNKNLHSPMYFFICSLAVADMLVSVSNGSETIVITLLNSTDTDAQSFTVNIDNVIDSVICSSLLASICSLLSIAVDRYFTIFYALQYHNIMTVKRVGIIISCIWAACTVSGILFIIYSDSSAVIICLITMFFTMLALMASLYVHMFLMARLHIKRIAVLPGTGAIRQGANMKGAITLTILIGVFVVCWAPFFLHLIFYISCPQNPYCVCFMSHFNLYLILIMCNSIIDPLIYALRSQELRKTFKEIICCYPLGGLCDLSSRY
Bridge positions count the residues as written; N and C are the ends. Square brackets hold non-standard residues; d marks the D form. Peptide text beside a SMILES is read from it. d2Nal = N[C@H](Cc1ccc2ccccc2c1)C(=O)O; Ac5c = NC1(C(=O)O)CCCC1; Aib = CC(C)(N)C(=O)O
observed-property: pIC50
Formally, pIC50 is defined as -log10 of the concentration c, with c in mol/L.

Specify pIC50 for CC1(C)NC(=O)C[C@@H](C(N)=O)NC(=O)[C@H](Cc2c[nH]c3ccccc23)NC(=O)[C@H](CCCNC(=N)N)NC(=O)[C@@H](Cc2ccc3ccccc3c2)NC(=O)[C@H](Cc2c[nH]cn2)NC1=O ([Aib]H[d2Nal]RWD-NH2; lactam N-6) and stop.
7.36

Specify pIC50 for N=C(N)NCCC[C@@H]1NC(=O)[C@@H](Cc2ccc3ccccc3c2)NC(=O)[C@H](Cc2c[nH]cn2)NC(=O)C2(CCCC2)NC(=O)CC[C@@H](C(N)=O)NC(=O)[C@H](Cc2c[nH]c3ccccc23)NC1=O ([Ac5c]H[d2Nal]RWE-NH2; lactam N-6) and stop.
7.00

Specify pIC50 for `N=C(N)NCCC[C@@H]1NC(=O)[C@@H](Cc2ccc3ccccc3c2)NC(=O)[C@H](Cc2c[nH]cn2)NC(=O)C2(CCCCC2)NC(=O)C[C@@H](C(N)=O)NC(=O)[C@H](Cc2c[nH]c3ccccc23)NC1=O` and stop.
7.09

Specify pIC50 for `N=C(N)NCCC[C@@H]1NC(=O)[C@@H](Cc2ccc3ccccc3c2)NC(=O)[C@H](Cc2c[nH]cn2)NC(=O)C2(CCCC2)NC(=O)C[C@@H](C(N)=O)NC(=O)[C@H](Cc2c[nH]c3ccccc23)NC1=O` and stop.
7.14

Sourced from ChEMBL document CHEMBL4177763
